# target: PADI4 (Homo sapiens)
# Construct: His6; made in house
# Sequence (Q9UM07 whole entry): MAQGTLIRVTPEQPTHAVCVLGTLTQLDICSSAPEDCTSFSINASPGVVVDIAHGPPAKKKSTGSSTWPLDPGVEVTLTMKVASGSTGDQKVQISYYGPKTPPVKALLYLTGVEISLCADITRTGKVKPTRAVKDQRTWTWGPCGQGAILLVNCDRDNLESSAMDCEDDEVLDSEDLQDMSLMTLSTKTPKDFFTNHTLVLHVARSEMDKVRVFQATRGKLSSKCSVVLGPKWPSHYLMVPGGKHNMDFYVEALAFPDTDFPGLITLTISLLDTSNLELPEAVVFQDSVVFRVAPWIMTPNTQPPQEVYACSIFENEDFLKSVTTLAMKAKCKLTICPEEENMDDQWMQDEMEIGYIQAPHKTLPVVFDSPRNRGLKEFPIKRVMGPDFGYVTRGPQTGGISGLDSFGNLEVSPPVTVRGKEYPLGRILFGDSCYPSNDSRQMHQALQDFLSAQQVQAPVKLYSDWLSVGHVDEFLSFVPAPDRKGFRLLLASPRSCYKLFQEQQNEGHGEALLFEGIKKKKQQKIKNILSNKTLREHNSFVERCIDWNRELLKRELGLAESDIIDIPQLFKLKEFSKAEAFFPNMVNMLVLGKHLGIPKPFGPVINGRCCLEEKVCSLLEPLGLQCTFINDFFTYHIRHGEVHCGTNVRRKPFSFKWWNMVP
# experimental details: COLDER inhibition assay, BAEE substrate, with or without 1 h preincubation
# Type: biochemical
# run parameters: COLDER, 1 h preincubation of peptide and PADI4, 10 mM CaCl2; read-out: IC50 Values 1 h preincubation
Where a SMILES comes first, the peptide text is derived from it. Bridges are numbered along the chain shown (N, C = ends). [ ]: non-standard residue; d: D form. Orn(fluoroacetimidoyl) = N=C(CF)NCCC[C@H](N)C(=O)O
IC50 values by entry
# output: bare number, implied unit nM

[[record]]
compound = "N=C(N)NCCC[C@@H]1NC(=O)[C@H](CCCNC(=N)CF)NC(=O)[C@H](CC(=O)O)NC(=O)[C@H](Cc2ccc(O)cc2)NC(=O)[C@H](CCCCN)NC(=O)[C@H](CO)NC(=O)[C@@H](Cc2ccc(O)cc2)NC(=O)CSC[C@@H](C(=O)NCC(N)=O)NC(=O)[C@H](CC(=O)O)NC(=O)[C@H](CCCNC(=N)N)NC(=O)[C@@H]2CCCN2C(=O)[C@H](CO)NC1=O [cP4_4, ySKYD(2)RSPRDCG] ({CH2CO}-[dY]SKYD[Orn(fluoroacetimidoyl)]RSPRDCG-NH2; thioether N-12)"
reported_property = "IC50"
value = 70

[[record]]
compound = "CC[C@H](C)[C@@H]1NC(=O)[C@@H](Cc2ccc(O)cc2)NC(=O)CSC[C@@H](C(=O)NCC(N)=O)NC(=O)[C@H](CO)NC(=O)[C@H](CCCNC(=N)CF)NC(=O)[C@H](CC(=O)O)NC(=O)[C@H](CCCNC(=N)CF)NC(=O)[C@H](CC(C)C)NC(=O)CNC(=O)[C@H](Cc2c[nH]c3ccccc23)NC1=O [cP4_2, yIWGL(2)D(2)SCG] ({CH2CO}-[dY]IWGL[Orn(fluoroacetimidoyl)]D[Orn(fluoroacetimidoyl)]SCG-NH2; thioether N-10)"
reported_property = "IC50"
value = 870

[[record]]
compound = "CC[C@H](C)[C@H](NC(=O)[C@H](Cc1c[nH]c2ccccc12)NC(=O)[C@H](CCC(=O)O)NC(=O)[C@@H]1CSCC(=O)N[C@H](Cc2ccc(O)cc2)C(=O)N[C@@H](C(C)C)C(=O)N[C@@H](Cc2ccc(O)cc2)C(=O)N[C@@H](CCCNC(=N)CF)C(=O)N[C@@H](CC(=O)O)C(=O)N1)C(=O)N[C@@H](CC(N)=O)C(=O)N[C@@H](CCCNC(=N)N)C(=O)N[C@@H](C)C(=O)NCC(N)=O [cP4_165, yVY(2)DCEWINRAG] ({CH2CO}-[dY]VY[Orn(fluoroacetimidoyl)]DCEWINRAG-NH2; thioether N-6)"
reported_property = "IC50"
value = 170


# context switch: different compound, same IC50
In: GET /values?readout=IC50&item= N=C(N)NCCC[C@@H]1NC(=O)[C@H](CCCCN)NC(=O)[C@H](CC(N)=O)NC(=O)[C@H](Cc2ccccc2)NC(=O)[C@H](CC(=O)O)NC(=O)[C@H](Cc2c[nH]c3ccccc23)NC(=O)[C@H](CC(N)=O)NC(=O)[C@H](CCCNC(=N)CF)NC(=O)[C@H](Cc2ccc(O)cc2)NC(=O)[C@H](Cc2c[nH]c3ccccc23)NC(=O)[C@@H](Cc2ccc(O)cc2)NC(=O)CSC[C@@H](C(=O)NCC(N)=O)NC1=O [cP4_10, yWY(2)NWDFNKRCG] ({CH2CO}-[dY]WY[Orn(fluoroacetimidoyl)]NWDFNKRCG-NH2; thioether N-12)
Out: 93
